Data provenance is ChEMBL document CHEMBL1961873.

I'd appreciate it if you could supply inhibition values for the items below.
target: SRSF protein kinase 1 (Homo sapiens) (UniProt Q96SB4); conditions: at 1 µM;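 further: reported values are mean percent inhibition of SRPK1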
Sequence (Q96SB4 whole entry): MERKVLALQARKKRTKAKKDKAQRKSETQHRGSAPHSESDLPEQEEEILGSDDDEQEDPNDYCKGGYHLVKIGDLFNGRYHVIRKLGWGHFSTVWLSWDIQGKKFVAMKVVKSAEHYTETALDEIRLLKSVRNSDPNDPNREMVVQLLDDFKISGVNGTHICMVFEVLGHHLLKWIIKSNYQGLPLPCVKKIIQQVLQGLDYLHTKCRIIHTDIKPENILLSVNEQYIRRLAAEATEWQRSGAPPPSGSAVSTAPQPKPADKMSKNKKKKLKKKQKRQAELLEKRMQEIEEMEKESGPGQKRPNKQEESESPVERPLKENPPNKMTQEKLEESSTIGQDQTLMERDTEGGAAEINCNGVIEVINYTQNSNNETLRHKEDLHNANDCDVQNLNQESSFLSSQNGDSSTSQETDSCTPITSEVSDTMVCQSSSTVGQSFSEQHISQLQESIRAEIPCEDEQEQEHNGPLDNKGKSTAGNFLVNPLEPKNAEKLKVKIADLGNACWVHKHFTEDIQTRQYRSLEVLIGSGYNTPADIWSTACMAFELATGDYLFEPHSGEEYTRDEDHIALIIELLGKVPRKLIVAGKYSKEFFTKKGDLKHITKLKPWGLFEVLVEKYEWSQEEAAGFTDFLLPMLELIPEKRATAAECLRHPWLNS
Give the value, in units of %, as a plain number.

Provide only the value of recorded inhibition for CCn1c(-c2nonc2N)nc2c(C#CC(C)(C)O)nc(OCCNC)cc21
-2.97

For the compound Cc1ccc(C(=O)NC2CC2)cc1-c1ccc2[nH]ncc2c1 , report inhibition.
1.22

Quote inhibition reported for NC(=O)c1sc(-n2cnc3ccccc32)cc1OCc1ccccc1Br please.
-2.38

Please list inhibition recorded for the compound CS(=O)(=O)Nc1cccc(-c2ccc3c(NC(=O)C4CC4)n[nH]c3c2)c1
-4.93

Provide only the value of recorded inhibition for CC(C)c1ccc2c(c1)NC(=O)/C2=N/Nc1ccc(S(N)(=O)=O)cc1
-0.94

# return recorded inhibition for input NS(=O)(=O)c1cccc(Nc2cc(-c3ccc(F)cc3)n[nH]2)c1
3.13

Report measured inhibition; entry is CC(C)c1ccc(Nc2nccc(-c3cnn4ncccc34)n2)cc1
-0.8

Return inhibition for the following compound: COc1cccc(-n2ncc3c(N/N=C/c4ccc(S(C)(=O)=O)cc4)ncnc32)c1
0.02

Write down inhibition measured for item NS(=O)(=O)c1cccc(-c2cc3ccncc3cc2OCc2ccccc2)c1
-2.89

Using the record for COc1cc2ncn(-c3cc(OCc4ccccc4S(C)(=O)=O)c(C#N)s3)c2cc1OC , state its measured inhibition.
-1.66

Return the recorded inhibition value; entry: O=C(Nc1ccc(Oc2ccc3[nH]c(NC(=O)c4ccco4)nc3c2)cc1)Nc1cc(C(F)(F)F)ccc1F
5.87

Given [O-][S+]1CCN(Cc2ccc(-c3ccc4ncnc(Nc5ccc(OCc6ccccc6)c(Cl)c5)c4c3)o2)CC1 , respond with its inhibition.
-2.79

Hello, please tell me recorded inhibition for this one: CN(C)C(=O)O[C@@H]1CN[C@@H](C#Cc2cc3ncnc(Nc4ccc(OCc5cccc(F)c5)c(Cl)c4)c3s2)C1
-5.46

// fetch inhibition given entry COc1cccc(-n2nc(C)c3c(N/N=C(\C)c4ccncc4)ncnc32)c1
-2.27

# return recorded inhibition for entry Nc1nccc(-c2c(-c3ccc(F)cc3)nn3cc(C(F)(F)F)ccc23)n1
-1.1

Tell me inhibition reported for Cc1ccc(Nc2ccnc(Nc3cccc(C(N)=O)c3)n2)cc1O
1.41

Provide one value: measured inhibition of COc1cc2ncnc(Nc3ccc(C)c(O)c3)c2cc1OC
-0.28

For COc1cccc(-n2ncc3c(N/N=C/c4ccc(C)cc4)ncnc32)c1 , write its inhibition.
-1.68

Supply measured inhibition of CCOc1nccc2c1nc(-c1nonc1N)n2CC in your reply.
6.12

Read off the recorded inhibition for CN(c1ccc(NC(=O)Nc2ccc(OC(F)(F)F)cc2)cc1)c1ccnc(Nc2cccc(S(N)(=O)=O)c2)n1
1.1
